# Tested on: SN12C renal
# Assay Overview: NCI tumour cell line growth inhibition, 48 h
Would you mind telling me the reported TGI of each entry?

Prompt: Need TGI of "CNC(=O)CCNC(=O)CCC(=O)N(C)C" , thanks.
Response: > 100 µM

Prompt: Need TGI of COC(=O)C1=C(OC(=O)/C(=C/c2ccc(Cl)cc2Cl)c2ccc(Cl)cc2Cl)C(C(=O)OC)[C@@]2(O)[C@@H](C(=O)OC)[C@H](C)C[C@@H]1[C@@H]2C(=O)OC (some centres not stated) , thanks.
Response: > 100 µM

Prompt: Need TGI of COC(=O)CCC(C)[C@H]1CCC2C3C(C[C@H](OC(C)=O)[C@@]21C)[C@@]1(C)CCC2(C[C@H]1C[C@H]3OC(C)=O)OOC1(CCC(C)CC1)OO2 (some centres not stated) , thanks.
Response: > 100 µM

Prompt: Need TGI of NC(=O)C(c1ccccc1)N1OC2C(=O)N(Cc3ccccc3)C(=O)C2C1c1cccc(Oc2ccc(Cl)cc2)c1 (configuration not stated) , thanks.
Response: 30.7 µM

Prompt: Need TGI of O=S1CSCS1 (configuration not stated) , thanks.
Response: > 100 µM

Prompt: Need TGI of "N#Cc1nc(CSCc2ccccc2)oc1N" , thanks.
Response: > 100 µM

Prompt: Need TGI of COc1ccc(C2=Nc3ccccc3SC(C)C2)cc1 (configuration not stated) , thanks.
Response: > 100 µM

Prompt: Need TGI of "O=C1c2cccc3cccc(c23)C(=O)N1CCCNCCCCNCCCN1C(=O)c2cccc3cccc(c23)C1=O" , thanks.
Response: 2.37 µM

Prompt: Need TGI of "CCOC(=O)[C@@H]1C[C@H]1c1ccc(O)c(O)c1" , thanks.
Response: > 100 µM

Prompt: Need TGI of CC(NC(=O)C(OC(=O)C(C)NC(=O)OC(C)(C)C)C(C)C)C(=O)OC(C(=O)O)C(C)C (configuration not stated) , thanks.
Response: > 100 µM

Prompt: Need TGI of "O=C(/C=C/c1ccccc1)c1c[nH]c2ccccc2c1=O" , thanks.
Response: 15.5 µM

Prompt: Need TGI of Nc1ncnc2c1ncn2C1OC(CSC(F)(F)F)C(O)C1O (configuration not stated) , thanks.
Response: > 100 µM

Prompt: Need TGI of CC(N=C(N)N)C(=O)O (configuration not stated) , thanks.
Response: > 100 µM

Prompt: Need TGI of "O=c1oc2cc(N=Cc3ccccc3Cl)ccc2c2ccccc12" , thanks.
Response: > 100 µM

Prompt: Need TGI of "CC[C@@]1(OC(=O)CN)C(=O)OCc2c1cc1n(c2=O)Cc2cc3cc4c(cc3nc2-1)OCO4" , thanks.
Response: 0.563 µM

Prompt: Need TGI of O=C1CSC(/C=C/c2ccccc2)N1c1ccc(-c2ccc(-n3c(-c4ccccc4)nc4ccccc4c3=O)cc2)cc1 (configuration not stated) , thanks.
Response: > 100 µM

Prompt: Need TGI of Cc1c(C)c2c(c(C)c1NC(=O)/C=C\C(=O)O)CCC(C)(CCCC(C)CCCC(C)CCCC(C)C)O2 (configuration not stated) , thanks.
Response: 3.3 µM
